For each record, write down the corresponding IC50 (cell viability).
# Tested on: HL-60
# Test Settings: 72 h

q: Record lookup: for HL-60, what IC50 (cell viability) belongs to Cc1cc(C(=O)NNCc2ccccc2)no1 [Isocarboxazid] ?
a: > 10 µM

q: Form field: IC50 (cell viability) recorded for O=c1cc(-c2ccccc2)oc2c1ccc1ccccc12 [Alpha-Naphtoflavone] with HL-60 (enter value)
a: > 10 µM

q: Report IC50 (cell viability) for OC[C@H]1O[C@@H](n2cnc3c2N=CNC[C@H]3O)C[C@@H]1O [Pentostatin] tested on HL-60.
a: > 10 µM

---

# Tested on: LAMA-84
# Test Protocol: cell viability (% survival relative to DMSO control, bortezomib = 0%); higher = less cytotoxic
# Test Settings: 10000 nM; 72 h
Assay Endpoint: cell viability (%)
Please reply with the bare figure in % and do not write the unit itself.

q: Find the recorded cell viability belonging to Cc1c2c(=O)n(-c3ccccc3Cl)[nH]c2cc(=O)n1Cc1ccccn1 and report it.
a: 99.9

q: Consider the compound CN(CCCOc1ccc(Cc2ccccc2)cc1)CCC(=O)O and give its measured cell viability.
a: 91.9

q: Item under review: Cc1c(Cl)cccc1S(=O)(=O)Nc1nc(CC(=O)N2CCN(C)CC2)cs1 . Reported cell viability?
a: 99.9

---

# Tested on: myeloid leukemia patient primary cells Pat.10
# Test Protocol: cell viability (% survival relative to DMSO control); higher = less cytotoxic
# Test Settings: 1000 nM; 72 h
What cell viability was measured for each of the following?
Respond with the bare value in %.

q: What cell viability appears in the records for this compound with myeloid leukemia patient primary cells Pat.10? Cc1[nH]nc(C(F)(F)F)c1Cc1sc2c(c1C(=O)N1C[C@](C)(O)CO1)c(=O)n(C)c(=O)n2C(C)C [AZD3965]
a: 46.5

q: Lab note: need cell viability with myeloid leukemia patient primary cells Pat.10 for entry CN(CCOc1ccc(Cc2sc(O)nc2O)cc1)c1ccccn1 [Rosiglitazone] , please look it up.
a: 67.1

q: Return cell viability measured with myeloid leukemia patient primary cells Pat.10 given this compound: Cn1cc(-c2ccncc2)c(-c2ccc(OCc3ccc4ccccc4n3)cc2)n1
a: 44.2

q: # query: cell viability | item CN(Cc1cnc2nc(N)nc(N)c2n1)c1ccc(C(=O)N[C@@H](CCC(=O)O)C(=O)O)cc1 [Methotrexate] | system: myeloid leukemia patient primary cells Pat.10
a: 23

q: Write down the reported cell viability of CC(=O)Nc1nc(C)c(-c2ccc(Cl)c(S(=O)(=O)NCCO)c2)s1 [PIK93] , test system: myeloid leukemia patient primary cells Pat.10.
a: 60.8

q: Tell me reported cell viability for O=c1cc(N2CCOCC2)oc2c(-c3ccccc3)cccc12 , tested with myeloid leukemia patient primary cells Pat.10.
a: 50.8

q: Could you share what cell viability was measured for C=CCN(C)CCCCCCOc1ccc(C(=O)c2ccc(Br)cc2)c(F)c1.O=C(O)/C=C/C(=O)O [Ro 48-8071 fumarate] , tested on myeloid leukemia patient primary cells Pat.10?
a: 73.8

---

# System: myeloid leukemia patient primary cells Pat.7
# Test Protocol: cell viability (% survival relative to DMSO control); higher = less cytotoxic
# Test Settings: 10000 nM; 72 h
Assay Endpoint: cell viability

q: Item under review: C[C@]12C=CC(=O)C=C1CC[C@@H]1[C@@H]2[C@@H](O)C[C@@]2(C)[C@H]1CC[C@]2(O)C(=O)CO [Prednisolone] . Reported cell viability?
a: 83.4%

q: Sample Cc1c2c(=O)n(-c3ccccc3Cl)[nH]c2cc(=O)n1Cc1ccccn1 — what was its cell viability?
a: > 100%

q: I am curious: what cell viability value has been reported for CN1CCN(CCCN2c3ccccc3Sc3ccc(C(F)(F)F)cc32)CC1 [Trifluoperazine] ?
a: < 0%

---

# System: KG-1
# Test Protocol: cell viability (% survival relative to DMSO control, bortezomib = 0%); higher = less cytotoxic
# Test Settings: 1000 nM; 72 h
Assay Endpoint: cell viability (%)
Give the value, in units of %, as a plain number.

q: For the compound shown here, CN(CCCOc1ccc(Cc2ccccc2)cc1)CCC(=O)O , give the reported cell viability.
a: 108

q: Fill in: cell viability of CC(=O)Nc1nc(C)c(-c2ccc(Cl)c(S(=O)(=O)NCCO)c2)s1 is ___
a: 80.8

q: cell viability lookup needed for C[C@H]1c2cccc(O)c2C(=O)C2C(=O)[C@]3(O)C(=O)C(C(N)=O)C(=O)[C@@H](N(C)C)[C@@H]3[C@@H](O)[C@@H]21 (some centres undefined) , thanks.
a: 95.1

q: // query cell viability value for entry Cc1[nH]nc(C(F)(F)F)c1Cc1sc2c(c1C(=O)N1C[C@](C)(O)CO1)c(=O)n(C)c(=O)n2C(C)C
a: 132

q: For the compound shown here, CO[C@H]1C[C@@H]2CC[C@@H](C)[C@@](O)(O2)C(=O)C(=O)N2CCCC[C@H]2C(=O)O[C@H]([C@H](C)C[C@@H]2CC[C@@H](OC(=O)C(C)(CO)CO)[C@H](OC)C2)CC(=O)[C@H](C)/C=C(\C)[C@@H](O)[C@@H](OC)C(=O)[C@H](C)C[C@H](C)/C=C/C=C/C=C/1C , give the reported cell viability.
a: 39.2

q: Returns the measured cell viability for the input compound. Input: O=C([O-])CC(O)(C(=O)[O-])C(O)C(=O)[O-].[K+].[K+].[K+] (centres undefined) [Hydroxycitrate]
a: 102

q: Which cell viability is reported for this compound? CCCCCCCC/C=C\CCCCCCCC(=O)Nc1ccccc1 [Octadec-9-Enoic Acid Phenylamide]
a: 99.2

q: For CCCCCOC(=O)Nc1nc(=O)n([C@@H]2O[C@H](C)[C@@H](O)[C@H]2O)cc1F , what is its reported cell viability?
a: 97.5

q: Please look up its cell viability: COc1ccc2c(NC(=O)Nc3cccc(C(F)(F)F)n3)ccnc2c1
a: 93.9

---

# System: LAMA-84
# Test Protocol: cell viability (% survival relative to DMSO control, bortezomib = 0%); higher = less cytotoxic
# Test Settings: 100 nM; 72 h
Assay Endpoint: cell viability (%)
Enter your answer as a number in %; do not include the unit.

q: Report cell viability for C[C@H]1c2cccc(O)c2C(=O)C2C(=O)[C@]3(O)C(=O)C(C(N)=O)C(=O)[C@@H](N(C)C)[C@@H]3[C@@H](O)[C@@H]21 (some centres undefined) please.
a: 106

q: Entry under review: CC/C=C\C[C@H]1C(=O)CC[C@@H]1CC(=O)OC [Methyl jasmonate] . Reported cell viability?
a: 105

q: Given the entry O=C([O-])CC(O)(C(=O)[O-])C(O)C(=O)[O-].[K+].[K+].[K+] (centres undefined) [Hydroxycitrate] , report its measured cell viability.
a: 115

q: Reported cell viability for O=C(/C=C/c1ccc(O)c(O)c1)OCCc1ccccc1 : what is it?
a: 98.1

q: Endpoint output: cell viability of N#Cc1ccc(N(Cc2ccc(Br)cc2)n2cnnc2)cc1 . Value?
a: 93.4

q: Any idea what its cell viability is? The compound is Cc1cccc(Nc2cc(Cl)nc(SCC(=O)O)n2)c1C
a: 99

q: Recorded cell viability of CC[C@H](C)[C@H](N)C(=O)N1CCSC1 , please.
a: 102

q: Which cell viability is reported for this compound? Cc1c(Cl)cccc1S(=O)(=O)Nc1nc(CC(=O)N2CCN(C)CC2)cs1
a: 96.9

q: Reported cell viability, compound Cc1nc(-c2ccccc2)sc1C(=O)Nc1ccc(S(N)(=O)=O)cc1 : ____
a: 102

---

# System: HL-60
# Test Protocol: cell viability (% survival relative to DMSO control, bortezomib = 0%); higher = less cytotoxic
# Test Settings: 1 nM; 72 h
Assay Endpoint: cell viability (%)
Response body: numeric value in %, unit text excluded.

q: So what's the measured cell viability for this one? CCc1c(C(=O)C(N)=O)c2c(OCC(=O)O)cccc2n1Cc1ccccc1
a: 98.8

q: # input compound: Cc1cccc(Nc2cc(Cl)nc(SCC(=O)O)n2)c1C ; wanted: its cell viability
a: 97.2

q: // cell viability lookup, key: CCn1c(=Cc2cccc[n+]2CC)sc(=C2Sc3ccccc3N2C)c1=O
a: 101

---

# Test system: THP-1
# Test Protocol: cell viability (% survival relative to DMSO control, bortezomib = 0%); higher = less cytotoxic
# Test Settings: 10000 nM; 72 h
Can you tell me cell viability for the items I'm about to list?
Quick reminder: number only, in %, skip the unit.

q: Please tell me: cell viability of O=C([O-])CC(O)(C(=O)[O-])C(O)C(=O)[O-].[K+].[K+].[K+] (centres undefined) [Hydroxycitrate] , system THP-1?
a: 105

q: Checklist item: cell viability tested on THP-1, entry CO[C@H]1C[C@@H]2CC[C@@H](C)[C@@](O)(O2)C(=O)C(=O)N2CCCC[C@H]2C(=O)O[C@H]([C@H](C)C[C@@H]2CC[C@@H](OC(=O)C(C)(CO)CO)[C@H](OC)C2)CC(=O)[C@H](C)/C=C(\C)[C@@H](O)[C@@H](OC)C(=O)[C@H](C)C[C@H](C)/C=C/C=C/C=C/1C [Temsirolimus] , value?
a: 55.6

q: Which measured cell viability belongs to CN(CCCOc1ccc(Cc2ccccc2)cc1)CCC(=O)O , tested on THP-1?
a: 102

q: # query: cell viability | item OC[C@H]1NC[C@H](O)[C@@H](O)[C@@H]1O [Duvoglustat] | system: THP-1
a: 101

q: Please state recorded cell viability (tested on THP-1) of CCc1c(C(=O)C(N)=O)c2c(OCC(=O)O)cccc2n1Cc1ccccc1 [Varespladib]
a: 96.9

q: Field: cell viability (THP-1). Entry: O=C(Nc1ccccc1)c1cc([N+](=O)[O-])ccc1Cl [GW9662]
a: 77.2

q: Checklist item: cell viability tested on THP-1, entry C=CCN(C)CCCCCCOc1ccc(C(=O)c2ccc(Br)cc2)c(F)c1.O=C(O)/C=C/C(=O)O [Ro 48-8071 fumarate] , value?
a: 80.3

q: Value wanted: cell viability (THP-1) of entry O=c1cc(N2CCOCC2)oc2c(-c3ccccc3)cccc12
a: 59.3

q: Report cell viability for Cc1cc2c(C(C)C)c(O)c(O)c(C=O)c2c(O)c1-c1c(C)cc2c(C(C)C)c(O)c(O)c(C=O)c2c1O [Gossypol] tested on THP-1.
a: 0.727

These entries and their values trace back to the supplement of paper PMC8671470.
